# Tested on: HCT-15 colon
# assay_text: NCI tumour cell line growth inhibition, 48 h
property: TGI

In: Tell me the measured TGI of O=C1C=C[C@@]23C[C@@H](Nc4c(O)c5c6c(c42)=NCCC=6C=N5)SC3=C1 , please.
Out: 7.94 µM

* * *

# System: DMS 114 small cell lung
# assay_text: NCI tumour cell line growth inhibition, 48 h
Respond with True for TGI values of 30 µM and above, False for values below.

Below, 5 compounds whose answers are already recorded.
[
  {
    "compound": "CC(/C(=N/NC(=O)C(N)=O)c1c(Cl)ccc(Cl)c1O)C1(O)C(=O)Nc2ccccc21 (stereo not given)",
    "discrete_label": "True"
  },
  {
    "compound": "COC(=O)C1C2C=CC(C2)C1(C(=O)OC)S(=O)CC12CCC(CC1O)C2(C)C (stereo not given)",
    "discrete_label": "True"
  },
  {
    "compound": "NC1=C(Br)C(=O)c2ncccc2C1=O",
    "discrete_label": "False"
  },
  {
    "compound": "[C-]#[O+].[C-]#[O+].[C-]#[O+].[C-]#[O+].[Ir].[Ir].[O-]c1ccc2ccccc2c1C=Nc1ccc(N=Cc2c([O-])ccc3ccccc23)cc1",
    "discrete_label": "True"
  },
  {
    "compound": "COC(=O)C1=C(C(=O)OC)C2C(C)=CC(C)=CN2C(C#N)=C(SC)S1 (stereo not given)",
    "discrete_label": "True"
  }
]

Moving on to the next compound.
In: TGI >= 30 µM for C=C1C(=O)OC2C1CC[C@H](C)C13OC(=O)CC1[C@@]23C (stereo not given in full) ?
Out: True
